- Tested on: HL-60(TB) leukemia
- TEST_SUMMARY: NCI-60 one-dose screen, 48 h (100 = growth as untreated, 0 = no growth, -100 = all killed)
- RUN_CONDITIONS: 10 µM unless noted
This is part of a sample that, as a whole, favours compounds with a hit. Of some 83,000 tested, about 20% had one in any assay.
Listed compounds paired with reported growth
Report only the number, with the unit % understood.

> print(dat)
                                   compound  measured.value
1  O=C(Nc1ccc(-n2ccc3c(NC(=O)c4ccccc4)ncnc32)cc1)Nc1ccc(Cl)c(C(F)(F)F)c1            15.3
2        NC(=O)c1ccc[n+](Cc2ccc(Cl)cc2Cl)c1            73.1
3            O1[As]2O[As]3O[As]1O[As](O2)O3            1.06
4              CCOC(=O)c1cc2cccc(OC)c2oc1=O             117
5       CCCCCCCCCCCC[n+]1c(C)cc(N)c2ccccc21           -44.4
6  Nc1c(C(=O)Nc2cccc3c2OCCO3)sc2nc3c(cc12)C(=O)CCC3            12.4
7  Cc1nc2sc(C(=O)Nc3cccc4ccccc34)c(N)c2cc1C(O)c1ccccc1 (stereo unspecified)           -55.1
8  Cc1ccc(C(NC(=O)c2ccccc2)c2ccc3cccnc3c2O)cc1 (stereo unspecified)             -21

The measured growth associated with `O=C(Nc1ccc(Cl)c(Cl)c1)NC(CO)(CO)CO` reads 102

The measured growth associated with `COc1cc2c(cc1NC(=O)C(F)(F)F)-c1ccc(NC(=O)C(F)(F)F)cc1C2` reads 99.3

The measured growth associated with `N#[N+]c1cnc([O-])[nH]c1=O` reads 67.4

###

- Test system: HL-60(TB) leukemia
- TEST_SUMMARY: NCI-60 one-dose screen, 48 h
- RUN_CONDITIONS: 10 µM unless noted
Compounds without any hit were thinned out: in the full panel of roughly 83,000, 20% have a hit. Active and inactive are the calls of the source. How the source made its calls: active means growth percent below 10; inactive means the rest.
Hi! Could you answer with just one of these? active, inactive

SAMPLE_SMILES	GROUP_LABEL
CCn1c(=O)n(C)c2c(=O)n(C)c(=O)n(C)c21	inactive
CCCCCc1c(C)[nH]c(/C=C2\N=C(c3ccc[nH]3)C=C2OCc2ccccc2)c1C	active

Lookup: Could you kindly confirm the outcome this assay logged for `Cc1cc(-c2cc(O)ccc2Cl)cc2nnc(Nc3ccc(OCCN4CCCC4)cc3)nc12` ?
Found: active

Lookup: Could you kindly confirm the outcome this assay logged for `CN1C(=O)C(=Cc2coc3ccc(Br)cc3c2=O)C(=O)N(C)C1=O` ?
Found: inactive

Lookup: Could you kindly confirm the outcome this assay logged for `CC[C@H]1OC(=O)[C@H](C)[C@@H](O[C@H]2C[C@@](C)(OC)[C@@H](O)[C@H](C)O2)[C@H](C)[C@@H](O[C@@H]2O[C@H](C)C[C@H](N(C)C)[C@H]2O)[C@](C)(O)C[C@H](C)CN(C)[C@H](C)[C@@H](O)[C@]1(C)O` ?
Found: inactive

###

- Test system: NCI-H23 lung
- TEST_SUMMARY: NCI-60 one-dose screen, 48 h (100 = growth as untreated, 0 = no growth, -100 = all killed)
- RUN_CONDITIONS: 10 µM unless noted
This is part of a sample that, as a whole, favours compounds with a hit. Of some 83,000 tested, about 20% had one in any assay.
So basically, if growth comes in under 80% it's MET, and if it's 80% or more it's NOT MET.

The following compounds have reported results that may help.
COMPOUND	SUBJECT_OF_TEST	GROUP_LABEL
COc1cc[c]([Hg][Cl])cc1	NCI-H23 lung	MET
Cc1ccc(N)cc1[As]=[As]c1cc(N)ccc1C (stereo unspecified)	NCI-H23 lung	MET
O=[As]c1ccc(C(=O)c2ccc(Oc3ccccc3)cc2)cc1 (stereo unspecified)	NCI-H23 lung	MET

Lookup: Strictly below 80% in growth? Cc1ccc2oc(=O)c3c(c2c1)OC(N)=C(C#N)C3c1ccco1 (stereo unspecified)
Found: NOT MET

Lookup: Strictly below 80% in growth? `Cc1cc(C)nc(C)c1.[Cl][Hg][Cl]`
Found: NOT MET

Lookup: Strictly below 80% in growth? `COc1ccc(/C=C\c2cc(OC)c(OC)c(OC)c2)cc1N/C=C\C(=O)c1c[nH]c2ccccc12`
Found: MET

The origin of these recorded values is PubChem BioAssay (NCI).
